Give measured IC50 for each item. Keep answers brief.
study-target: UniProt O14684
Sequence (O14684 whole entry): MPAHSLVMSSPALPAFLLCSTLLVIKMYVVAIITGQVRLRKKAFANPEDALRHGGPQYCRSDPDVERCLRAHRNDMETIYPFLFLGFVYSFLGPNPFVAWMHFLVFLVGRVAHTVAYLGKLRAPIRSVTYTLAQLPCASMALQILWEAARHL
protocol-summary: Inhibition of mPGES-1 in human IL-1beta-stimulated A549 cell microsomes assessed as reduction of PGE2 formation from PGH2 after 15 mins by RP-HPLC analysis

Query CCCCC(Sc1nc(OCCC(C)C)cc(OCCC(C)C)n1)C(=O)O (stereo not given) yields IC50 of > 10 µM

Query CCCCC(Cc1ccc(OCCc2ccccc2)cc1OCCc1ccccc1)C(=O)O (stereo not given) yields IC50 of > 10 µM

Query CCCCC(Cc1cc(OCCc2ccccc2)ccc1OCCc1ccccc1)C(=O)O (stereo not given) yields IC50 of 2.4 µM

Query CCCCC(Sc1nc(OCCC2CCCC2)cc(OCCC2CCCC2)n1)C(=O)O (stereo not given) yields IC50 of > 10 µM

Query `CCCC/C(=C\c1cc(OCCC2CCCCC2)ccc1OCc1ccc(C(F)(F)F)cc1)C(=O)O` yields IC50 of > 10 µM

* * *

study-target: Polyunsaturated fatty acid 5-lipoxygenase (Homo sapiens, UniProt P09917)
Sequence (P09917 whole entry): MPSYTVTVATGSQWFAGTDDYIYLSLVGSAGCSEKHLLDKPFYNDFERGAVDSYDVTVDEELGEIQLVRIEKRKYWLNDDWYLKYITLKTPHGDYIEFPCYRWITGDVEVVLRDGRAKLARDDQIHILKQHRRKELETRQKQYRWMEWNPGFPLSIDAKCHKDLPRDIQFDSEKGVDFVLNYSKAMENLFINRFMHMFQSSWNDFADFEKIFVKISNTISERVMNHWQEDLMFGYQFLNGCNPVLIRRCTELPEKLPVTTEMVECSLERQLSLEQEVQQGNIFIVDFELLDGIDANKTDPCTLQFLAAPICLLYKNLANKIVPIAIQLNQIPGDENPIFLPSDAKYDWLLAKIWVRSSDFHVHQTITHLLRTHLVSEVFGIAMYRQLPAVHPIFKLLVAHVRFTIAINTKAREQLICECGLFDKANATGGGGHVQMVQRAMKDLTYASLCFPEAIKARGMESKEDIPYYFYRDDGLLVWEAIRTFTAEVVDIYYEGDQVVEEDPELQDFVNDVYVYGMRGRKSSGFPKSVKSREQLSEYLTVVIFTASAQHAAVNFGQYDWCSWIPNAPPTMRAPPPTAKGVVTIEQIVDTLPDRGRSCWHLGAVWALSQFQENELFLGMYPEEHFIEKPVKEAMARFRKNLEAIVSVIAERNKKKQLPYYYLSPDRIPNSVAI
protocol-summary: Inhibition of 5-lipoxygenase-mediated 5(S)-H(p)ETE formation in A23187-stimulated human PMNL incubated 10 mins prior to A23187 challenge
Give measured IC50 for each item. Keep answers brief.

Record CCCCC(Sc1nc(OCCC2CCCCC2)cc(OCCC2CCCCC2)n1)C(=O)O (stereo not given) has Polyunsaturated fatty acid 5-lipoxygenase (Homo sapiens, UniProt P09917) IC50 equal to 800 nM

Record CCCCC(Sc1nc(OCCC(C)C)cc(OCCC(C)C)n1)C(=O)O (stereo not given) has Polyunsaturated fatty acid 5-lipoxygenase (Homo sapiens, UniProt P09917) IC50 equal to 1200 nM

Record CCCCC(Sc1cc(OCCc2ccccc2)cc(OCCc2ccccc2)c1)C(=O)O (stereo not given) has Polyunsaturated fatty acid 5-lipoxygenase (Homo sapiens, UniProt P09917) IC50 equal to 800 nM

Record `CCCC/C(=C\c1cc(OCCc2ccccc2)cc(OCCc2ccccc2)c1)C(=O)O` has Polyunsaturated fatty acid 5-lipoxygenase (Homo sapiens, UniProt P09917) IC50 equal to 700 nM

Record `CCCC/C(=C\c1cc(OCCC2CCCCC2)ccc1OCCC1CCCCC1)C(=O)O` has Polyunsaturated fatty acid 5-lipoxygenase (Homo sapiens, UniProt P09917) IC50 equal to 800 nM

Record `CCCC/C(=C\c1cc(OCc2ccc(C(F)(F)F)cc2)ccc1OCc1ccc(C(F)(F)F)cc1)C(=O)O` has Polyunsaturated fatty acid 5-lipoxygenase (Homo sapiens, UniProt P09917) IC50 equal to 200 nM

Record CCCCC(Sc1nc(OCCCCc2ccccc2)cc(OCCCCc2ccccc2)n1)C(=O)O (stereo not given) has Polyunsaturated fatty acid 5-lipoxygenase (Homo sapiens, UniProt P09917) IC50 equal to 700 nM

Record CCCCC(Sc1nc(OCCc2ccc(C)cc2)cc(OCCc2ccc(C)cc2)n1)C(=O)O (stereo not given) has Polyunsaturated fatty acid 5-lipoxygenase (Homo sapiens, UniProt P09917) IC50 equal to 500 nM

Record CCCCC(Cc1cc(OCCc2ccccc2)cc(OCCc2ccccc2)c1)C(=O)O (stereo not given) has Polyunsaturated fatty acid 5-lipoxygenase (Homo sapiens, UniProt P09917) IC50 equal to 4700 nM

Record `CCCC/C(=C\c1cc(OCCC2CCCCC2)ccc1OCc1ccc(C(F)(F)F)cc1)C(=O)O` has Polyunsaturated fatty acid 5-lipoxygenase (Homo sapiens, UniProt P09917) IC50 equal to 400 nM
